# Test system: human Factor 7 mRNA
# assay-method-text: Dose-dependent antisense inhibition of human Factor 7 in HepB3 cells, electroporation
# Format: cell-based
# measurement-context: 6.25 μM, approx. 16 hours (Table 15, Example 7)
Strand notation (5' to 3'): a small letter for the sugar, then the base; units joined by * are phosphorothioate-linked, units joined directly phosphodiester-linked; [ ] holds rarer units or linkages, { } end groups; capitals alone tell only the bases. e = 2'-O-(2-methoxyethyl) (MOE); [5mC] = 5-methylcytosine; d = 2'-deoxy (DNA)
recorded-metric: percent inhibition of Factor 7 mRNA, relative to untreated control cells (%)

substance	uom	assay-result
407939 (antisense eT*eG*e[5mC]*eA*eG*d[5mC]*d[5mC]*d[5mC]*dG*dG*d[5mC]*dA*d[5mC]*d[5mC]*d[5mC]*eA*eG*e[5mC]*eG*eA) [compound 407939]	%	28
422296 (antisense e[5mC]*e[5mC]*dG*dA*dG*dT*dT*d[5mC]*dT*dG*d[5mC]*dA*dG*dG*dA*eG*e[5mC]*eG*eG*e[5mC]) [compound 422296]	%	40
422150 (antisense eG*e[5mC]*eA*dT*dG*dG*dT*dG*dA*dT*dG*d[5mC]*dT*dT*d[5mC]*dT*dG*eA*eA*eT) [compound 422150]	%	20
422252 (antisense e[5mC]*eG*d[5mC]*d[5mC]*dG*dG*d[5mC]*dT*d[5mC]*dT*dG*d[5mC]*dT*d[5mC]*dA*eT*e[5mC]*e[5mC]*e[5mC]*e[5mC]) [compound 422252]	%	12
422140 (antisense eG*eT*eT*e[5mC]*eT*dG*d[5mC]*dA*dG*dG*dA*dG*d[5mC]*dG*dG*e[5mC]*e[5mC]*eT*eA*eA) [compound 422140]	%	34
